- run_description: Apparent permeability across apical to basolateral side in dog MDCK cells
- Type: ADME, cell-based, Canis lupus familiaris
Use class 1 when the recorded Papp A→B is no lower than 7 ×10⁻⁶ cm/s; use class 0 when it is lower.

[
  {
    "molecule": "C[C@@H](O)c1nc2cnc3[nH]ccc3c2n1[C@H]1CC[C@H](NCC(F)(F)F)C1",
    "answer_label": "class 1"
  },
  {
    "molecule": "OC[C@@H](O)c1nc2cnc3[nH]ccc3c2n1C1CCCCC1",
    "answer_label": "class 1"
  },
  {
    "molecule": "C[C@@H](O)c1nc2cnc3[nH]ccc3c2n1[C@H]1CC[C@H](NCC(F)F)CC1",
    "answer_label": "class 0"
  },
  {
    "molecule": "C[C@@H](O)c1nc2cnc3[nH]ccc3c2n1[C@H]1CC[C@H](CCC#N)CC1",
    "answer_label": "class 0"
  },
  {
    "molecule": "C[C@@H](O)c1nc2cnc3[nH]ccc3c2n1[C@H]1CC[C@H](C#N)CC1",
    "answer_label": "class 0"
  },
  {
    "molecule": "C[C@@H](O)c1nc2cnc3[nH]ccc3c2n1C1CCN(CCC#N)CC1",
    "answer_label": "class 0"
  },
  {
    "molecule": "C[C@@H](O)c1nc2cnc3[nH]ccc3c2n1[C@H]1CC[C@H](NCC(F)(F)F)CC1",
    "answer_label": "class 0"
  },
  {
    "molecule": "CO[C@H]1CC[C@H](n2c([C@@H](C)O)nc3cnc4[nH]ccc4c32)CC1",
    "answer_label": "class 0"
  },
  {
    "molecule": "CCN1CCC(n2c([C@@H](C)O)nc3cnc4[nH]ccc4c32)C(F)(F)C1 (stereo partly specified)",
    "answer_label": "class 1"
  },
  {
    "molecule": "OCc1nc2cnc3[nH]ccc3c2n1C1CCCCC1",
    "answer_label": "class 1"
  },
  {
    "molecule": "C[C@@H](O)c1nc2cnc3[nH]ccc3c2n1C1CCN(CC(F)(F)F)CC1",
    "answer_label": "class 1"
  },
  {
    "molecule": "C[C@@H](O)c1nc2cnc3[nH]ccc3c2n1[C@H]1CCCOC1",
    "answer_label": "class 1"
  },
  {
    "molecule": "C[C@@H](O)c1nc2cnc3[nH]ccc3c2n1[C@H]1CC[C@@H](C#N)CC1",
    "answer_label": "class 0"
  },
  {
    "molecule": "C[C@@H](O)c1nc2cnc3[nH]ccc3c2n1C1CCCCC1",
    "answer_label": "class 1"
  },
  {
    "molecule": "C[C@@H](O)c1nc2cnc3[nH]ccc3c2n1[C@H]1CC[C@H](CC#N)CC1",
    "answer_label": "class 0"
  },
  {
    "molecule": "OCCc1nc2cnc3[nH]ccc3c2n1C1CCCCC1",
    "answer_label": "class 1"
  },
  {
    "molecule": "C[C@@H](O)c1nc2cnc3[nH]ccc3c2n1[C@@H]1CCCN(C(=O)CC#N)C1",
    "answer_label": "class 0"
  },
  {
    "molecule": "C[C@@H](O)c1nc2cnc3[nH]ccc3c2n1[C@H]1CC[C@@H](NCC(F)(F)F)C1",
    "answer_label": "class 1"
  },
  {
    "molecule": "C[C@@H](O)c1nc2cnc3[nH]ccc3c2n1[C@@H]1CCC[C@@H](O)C1",
    "answer_label": "class 0"
  },
  {
    "molecule": "CC[C@@H](O)c1nc2cnc3[nH]ccc3c2n1C1CCCCC1",
    "answer_label": "class 1"
  },
  {
    "molecule": "CC(C)(O)c1nc2cnc3[nH]ccc3c2n1C1CCCCC1",
    "answer_label": "class 1"
  }
]

###

- target_desc: Tyrosine-protein kinase JAK2 (Homo sapiens, UniProt O60674)
- Sequence (O60674 whole entry): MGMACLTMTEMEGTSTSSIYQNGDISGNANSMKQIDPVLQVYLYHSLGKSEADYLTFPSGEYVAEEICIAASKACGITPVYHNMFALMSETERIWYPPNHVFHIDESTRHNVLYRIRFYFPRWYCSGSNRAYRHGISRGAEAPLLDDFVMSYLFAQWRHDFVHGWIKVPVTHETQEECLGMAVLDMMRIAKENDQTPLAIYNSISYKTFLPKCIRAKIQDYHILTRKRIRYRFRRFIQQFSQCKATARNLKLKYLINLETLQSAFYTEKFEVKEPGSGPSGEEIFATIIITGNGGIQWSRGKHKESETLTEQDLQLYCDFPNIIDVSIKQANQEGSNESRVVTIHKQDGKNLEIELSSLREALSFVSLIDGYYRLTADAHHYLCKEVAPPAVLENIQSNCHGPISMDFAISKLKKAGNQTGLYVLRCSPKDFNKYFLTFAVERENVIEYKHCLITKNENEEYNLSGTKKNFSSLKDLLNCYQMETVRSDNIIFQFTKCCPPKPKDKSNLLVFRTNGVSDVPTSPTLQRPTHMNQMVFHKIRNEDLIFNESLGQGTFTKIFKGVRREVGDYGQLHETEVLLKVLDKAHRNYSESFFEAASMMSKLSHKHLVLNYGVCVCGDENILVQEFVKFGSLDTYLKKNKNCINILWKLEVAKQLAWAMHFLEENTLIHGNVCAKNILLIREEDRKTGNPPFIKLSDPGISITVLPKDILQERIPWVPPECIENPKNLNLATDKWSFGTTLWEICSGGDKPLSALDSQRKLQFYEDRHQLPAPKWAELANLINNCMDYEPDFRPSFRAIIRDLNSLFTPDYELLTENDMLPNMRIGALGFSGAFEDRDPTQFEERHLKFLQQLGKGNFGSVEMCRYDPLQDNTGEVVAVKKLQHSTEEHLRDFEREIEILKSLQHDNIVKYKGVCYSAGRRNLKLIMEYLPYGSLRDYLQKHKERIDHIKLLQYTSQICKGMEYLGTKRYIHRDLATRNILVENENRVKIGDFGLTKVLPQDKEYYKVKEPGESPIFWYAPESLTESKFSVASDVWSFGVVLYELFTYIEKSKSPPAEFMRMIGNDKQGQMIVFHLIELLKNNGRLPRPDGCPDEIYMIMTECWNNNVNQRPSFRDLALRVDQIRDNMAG
Each record here notes measured Ki.

[
  {
    "smiles": "C[C@@H](O)c1nc2cnc3[nH]ccc3c2n1C1CCCCC1",
    "unit_symbol": "nM",
    "Ki": 21
  },
  {
    "smiles": "OCCc1nc2cnc3[nH]ccc3c2n1C1CCCCC1",
    "unit_symbol": "nM",
    "Ki": 18
  }
]

###

- run_description: AUC in cynomolgus monkey at 2 mg/kg, po by LC/MS/MS analysis
- Assay type: ADME, organism-based, Macaca fascicularis
- Set-up: dose 2 mg/kg, route oral
- test_context: plasma

[
  {
    "smiles": "C[C@@H](O)c1nc2cnc3[nH]ccc3c2n1[C@H]1CC[C@H](C#N)CC1",
    "unit_symbol": "µM·h",
    "AUC": 3.9
  },
  {
    "smiles": "C[C@@H](O)c1nc2cnc3[nH]ccc3c2n1[C@H]1CC[C@H](CCC#N)CC1",
    "unit_symbol": "µM·h",
    "AUC": 0.26
  },
  {
    "smiles": "C[C@@H](O)c1nc2cnc3[nH]ccc3c2n1[C@H]1CCCOC1",
    "unit_symbol": "µM·h",
    "AUC": 4.3
  }
]

###

pIC50: −log10 of the molar value.
Notes on pIC50 obtained with Cytochrome P450 2D6 (Homo sapiens).
Sequence (P10635 whole entry): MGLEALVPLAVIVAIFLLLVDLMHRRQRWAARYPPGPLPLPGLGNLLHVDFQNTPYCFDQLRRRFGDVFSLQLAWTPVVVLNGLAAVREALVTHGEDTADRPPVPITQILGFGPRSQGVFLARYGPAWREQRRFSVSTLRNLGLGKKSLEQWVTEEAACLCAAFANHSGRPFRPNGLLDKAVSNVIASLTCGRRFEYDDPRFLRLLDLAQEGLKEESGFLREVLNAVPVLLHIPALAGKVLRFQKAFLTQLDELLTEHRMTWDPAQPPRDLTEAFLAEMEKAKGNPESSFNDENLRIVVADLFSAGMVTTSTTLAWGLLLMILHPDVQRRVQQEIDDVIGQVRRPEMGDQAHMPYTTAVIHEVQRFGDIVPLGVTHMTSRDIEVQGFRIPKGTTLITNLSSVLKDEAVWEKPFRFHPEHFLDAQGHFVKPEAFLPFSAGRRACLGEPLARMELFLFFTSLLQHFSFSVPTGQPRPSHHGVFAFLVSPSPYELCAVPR
measurement_kind: pIC50

[
  {
    "smiles": "C[C@@H](O)c1nc2cnc3[nH]ccc3c2n1[C@H]1CC[C@H](CC#N)CC1",
    "result": "< 5.00"
  },
  {
    "smiles": "C[C@@H](O)c1nc2cnc3[nH]ccc3c2n1[C@H]1CC[C@H](NCC(F)(F)F)CC1",
    "result": "< 5.00"
  },
  {
    "smiles": "C[C@@H](O)c1nc2cnc3[nH]ccc3c2n1[C@H]1CC[C@H](CCC#N)CC1",
    "result": "< 5.00"
  }
]

###

pKi: −log10 of the molar value.
Notes on pKi obtained with Non-receptor tyrosine-protein kinase TYK2 (Homo sapiens).
Sequence (P29597 whole entry): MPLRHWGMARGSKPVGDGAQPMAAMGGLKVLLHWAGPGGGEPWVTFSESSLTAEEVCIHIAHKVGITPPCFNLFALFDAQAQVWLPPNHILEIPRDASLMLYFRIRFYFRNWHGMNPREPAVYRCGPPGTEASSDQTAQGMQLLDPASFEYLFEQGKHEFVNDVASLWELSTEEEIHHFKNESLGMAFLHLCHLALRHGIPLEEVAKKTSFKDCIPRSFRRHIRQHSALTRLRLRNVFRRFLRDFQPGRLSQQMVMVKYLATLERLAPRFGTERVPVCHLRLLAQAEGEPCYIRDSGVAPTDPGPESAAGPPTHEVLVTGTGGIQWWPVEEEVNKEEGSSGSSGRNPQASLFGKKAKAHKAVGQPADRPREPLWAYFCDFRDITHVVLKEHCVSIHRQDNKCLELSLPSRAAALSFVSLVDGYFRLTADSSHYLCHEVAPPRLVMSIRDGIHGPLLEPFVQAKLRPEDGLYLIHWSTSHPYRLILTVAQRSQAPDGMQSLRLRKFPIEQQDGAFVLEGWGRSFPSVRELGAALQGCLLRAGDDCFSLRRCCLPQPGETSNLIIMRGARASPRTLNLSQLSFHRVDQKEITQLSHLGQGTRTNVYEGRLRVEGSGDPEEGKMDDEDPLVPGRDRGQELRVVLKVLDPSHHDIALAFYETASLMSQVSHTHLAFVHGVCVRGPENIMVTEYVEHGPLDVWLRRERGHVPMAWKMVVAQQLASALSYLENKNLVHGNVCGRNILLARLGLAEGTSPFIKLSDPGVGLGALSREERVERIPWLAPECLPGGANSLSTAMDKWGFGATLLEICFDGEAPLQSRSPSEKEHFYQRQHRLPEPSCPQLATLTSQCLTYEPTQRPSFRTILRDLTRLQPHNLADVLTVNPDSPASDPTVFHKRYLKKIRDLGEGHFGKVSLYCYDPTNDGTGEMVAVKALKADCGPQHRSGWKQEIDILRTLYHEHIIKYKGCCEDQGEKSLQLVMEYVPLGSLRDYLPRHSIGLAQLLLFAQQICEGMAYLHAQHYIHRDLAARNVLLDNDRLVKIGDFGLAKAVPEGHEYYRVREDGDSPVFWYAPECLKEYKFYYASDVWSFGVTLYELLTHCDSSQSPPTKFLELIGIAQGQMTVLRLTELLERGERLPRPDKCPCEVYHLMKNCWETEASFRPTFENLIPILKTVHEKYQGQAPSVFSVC

[
  {
    "smiles": "C[C@@H](O)c1nc2cnc3[nH]ccc3c2n1[C@H]1CC[C@H](C#N)CC1",
    "pKi": 7.92
  },
  {
    "smiles": "C[C@@H](O)c1nc2cnc3[nH]ccc3c2n1[C@H]1CC[C@H](NCC(F)(F)F)CC1",
    "pKi": 8.47
  }
]

###

- run_description: AUC in Lewis rat collagen-induced arthritis model at 500 mg/kg, po administered on day 10
- Assay type: ADME, organism-based
- Design: dose 500 mg/kg, route oral
- test_context: in vivo

[
  {
    "smiles": "C[C@@H](O)c1nc2cnc3[nH]ccc3c2n1[C@H]1CC[C@H](C#N)CC1",
    "AUC [µM·h]": 467
  }
]

###

- run_description: AUC in Lewis rat collagen-induced arthritis model at 20 mg/kg, po administered on day 20
- Type: ADME, organism-based
- Design: dose 20 mg/kg, route oral
- test_context: in vivo

[
  {
    "smiles": "C[C@@H](O)c1nc2cnc3[nH]ccc3c2n1[C@H]1CC[C@H](C#N)CC1",
    "AUC / µM·h": 10.6
  }
]

###

- run_description: Cmax in Sprague-Dawley rat at 2 mg/kg, po by LC/MS/MS analysis
- Type: ADME, organism-based
- Design: dose 2 mg/kg, route oral
- test_context: in vivo
Each record here notes measured Cmax.

[
  {
    "smiles": "C[C@@H](O)c1nc2cnc3[nH]ccc3c2n1[C@H]1CC[C@H](CCC#N)CC1",
    "unit_symbol": "nM",
    "Cmax": 220
  },
  {
    "smiles": "C[C@@H](O)c1nc2cnc3[nH]ccc3c2n1[C@H]1CC[C@H](NCC(F)(F)F)CC1",
    "unit_symbol": "nM",
    "Cmax": 960
  },
  {
    "smiles": "C[C@@H](O)c1nc2cnc3[nH]ccc3c2n1[C@H]1CCCOC1",
    "unit_symbol": "nM",
    "Cmax": 5200
  },
  {
    "smiles": "C[C@@H](O)c1nc2cnc3[nH]ccc3c2n1[C@H]1CC[C@H](CC#N)CC1",
    "unit_symbol": "nM",
    "Cmax": 930
  },
  {
    "smiles": "C[C@@H](O)c1nc2cnc3[nH]ccc3c2n1[C@H]1CC[C@H](C#N)CC1",
    "unit_symbol": "nM",
    "Cmax": 420
  },
  {
    "smiles": "C[C@@H](O)c1nc2cnc3[nH]ccc3c2n1[C@H]1CC[C@@H](NCC(F)(F)F)C1",
    "unit_symbol": "nM",
    "Cmax": 980
  }
]

###

- run_description: Apparent permeability across basolateral to apical side in dog MDCK cells
- Format: ADME, cell-based, Canis lupus familiaris
Assign labels as follows, please: 1 for Papp B→A below 5 ×10⁻⁶ cm/s; 0 for Papp B→A equal to or exceeding 5 ×10⁻⁶ cm/s.

[
  {
    "smiles": "C[C@@H](O)c1nc2cnc3[nH]ccc3c2n1[C@H]1CC[C@H](NCC(F)(F)F)CC1",
    "answer_label": 0
  },
  {
    "smiles": "C[C@@H](O)c1nc2cnc3[nH]ccc3c2n1[C@H]1CC[C@H](CCC#N)CC1",
    "answer_label": 0
  },
  {
    "smiles": "C[C@@H](O)c1nc2cnc3[nH]ccc3c2n1[C@H]1CCCOC1",
    "answer_label": 0
  },
  {
    "smiles": "C[C@@H](O)c1nc2cnc3[nH]ccc3c2n1[C@H]1CC[C@H](C#N)CC1",
    "answer_label": 1
  },
  {
    "smiles": "C[C@@H](O)c1nc2cnc3[nH]ccc3c2n1[C@H]1CC[C@@H](NCC(F)(F)F)C1",
    "answer_label": 0
  }
]

Data provenance is ChEMBL document CHEMBL2385026.
